target: Inadl_6, Q8NI35; test: holdup assay; parameters: key: below the threshold = too weak to quantify, mostly under pKd 3.1 to 4; details: plain residues with an end cap or a label only (N-terminal biotin on a linker: ado-ado)
Sequence (Q8NI35 1058-1167): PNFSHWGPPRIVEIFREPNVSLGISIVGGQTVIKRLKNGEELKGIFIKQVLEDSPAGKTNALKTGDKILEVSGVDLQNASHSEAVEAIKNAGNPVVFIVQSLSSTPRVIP
quantity: pKd

A selection of reference data follows.
# binder, pKd
measured = [
    ("QRYPGNQTTC [CCL24, O00175]", "below the threshold"),
    ("WAKEKQHTRL [SLC17A1, Q14916]", "below the threshold"),
    ("KEKASTETEC [TRPM1, Q7Z4N2]", "below the threshold"),
    ("PEKVSNTTVV [IGSF5, Q9NSI5]", "below the threshold"),
]

Continue with the binder presented below.
Consider FHSIKQSTAV [CRHR1, P34998] . Its measured pKd is below the threshold

From: paper PMC9482650
